Assay: E. coli growth modulation, two-sided OD650, primary screen, E. coli filamentation project, strain DRC41, 24 h (AID 1093);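 further: MC1000 strain lacking acrAB efflux and sulA so SOS filamentation is blocked; test concentration not given here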
Conditions: OD650, 24 h, higher = more signal, called active from +8 up or from −8 down
quantity-name: z-score
Respond using a number only.

The following molecules have reported results that may help.
[[record]]
molecule = "Cc1ccc(N2C(=O)c3ccccc3[C@@H](C(=O)NCc3ccccc3)[C@@H]2c2ccc(CO)cc2)nc1"
quantity_name = "z-score"
recorded_measurement = 1.29

[[record]]
molecule = "COC(=O)C1=CC(c2ccc(CO)cc2)=CC(c2cccs2)N(Cc2cccc(OC(F)(F)F)c2)C=C1C(=O)OC (stereo unspecified)"
quantity_name = "z-score"
recorded_measurement = 0.241

[[record]]
molecule = "CCOC(=O)C1=CC[C@@H](c2ccc(-c3ccc(OCc4ccccc4)cc3)c(OC)c2)N(S(=O)(=O)c2ccc(C)cc2)[C@H]1c1ccccc1"
quantity_name = "z-score"
recorded_measurement = -0.0642


May I ask what z-score has been recorded for C=CCC1=C[C@H]2[C@H]([C@@H]3C=C[C@]2(CC=C)C(=O)[C@]32CO2)[C@@]2(CO2)C1=O ?
2.54

// next record O=C(CS)NCCCCCNC(=O)[C@H]1C[C@H]2C(=O)N[C@@H](Cc3ccccc3)C(=O)N2[C@H]1c1ccc(O)cc1
1.12

// next record CCOC(=O)C[C@H]1[C@H](OC(=O)c2ccccc2-c2ccccc2)[C@@H](NC(=O)C2CCCCC2)c2cc(OCCCO)ccc2N1C(=O)c1ccccc1
2.19

* * *

Assay: A549 cell viability effects, profiling panel, calcein-AM fluorescence, 48 h, basal (AID 1162); further: test concentration not given here
Details: higher = more signal
quantity-name: z-score
Respond using a number only.

[[record]]
compound = "O=[N+]([O-])c1ccc(C[n+]2ccc3ccc(O)cc3c2)o1"
recorded_measurement = 1.21

[[record]]
compound = "O=C/C=C/c1ccccc1Cl"
recorded_measurement = 1.23

[[record]]
compound = "COCCOC(=O)N1C(=O)[C@@]2(c3cc(C#CCCO)ccc31)[C@H](C(=O)N1CCCCCCC1)[C@H]1C(=O)O[C@H](c3ccccc3)[C@H](c3ccccc3)N1[C@@H]2c1ccc(O)cc1"
recorded_measurement = 1.53

[[record]]
compound = "O=C1C2C=CC(C(O)Cc3ccccc3)N(Nc3ccc([N+](=O)[O-])cc3)C2C(=O)N1c1ccccc1 (stereo not given)"
recorded_measurement = -0.356

[[record]]
compound = "CC(C)N1CC=CC23O[C@@H]4/C=C\\CCCOC(=O)C4[C@H]2C(=O)N(CCCCCO)[C@@H]3C1=O (stereo not given in full)"
recorded_measurement = 0.196

[[record]]
compound = "Cc1ccc(N2C(=O)c3ccccc3[C@](C)(C(=O)NCC(C)C)[C@@H]2c2ccc(CO)cc2)nc1"
recorded_measurement = -0.535

[[record]]
compound = "COC(=O)[C@@]1(Cc2ccccc2)[C@H]2c3cc(C(=O)N4CCCC4)n(CCN4CNCC4=O)c3C[C@H]2CN1C(=O)c1ccccc1"
recorded_measurement = -0.626

[[record]]
compound = "C=C(COC)/C(=C/C[C@@H](OC(=O)c1ccncc1)c1ccc(OCCO)cc1)c1cc(C(=O)OC)ccc1OC"
recorded_measurement = 1.13

[[record]]
compound = "Cc1ccc(S[C@]2(C(=O)O)CC(=O)N(Cc3cc(C(F)(F)F)cc(C(F)(F)F)c3)[C@@H]2c2ccc(CO)cc2I)cc1"
recorded_measurement = 0.673

[[record]]
compound = "CCC(=O)[C@]12O[C@@]3([C@@H]4C(=O)OCC[C@@H]41)N(CC)C(C)=C(C(=O)OC)[C@@H](c1ccccc1)N3C2=O"
recorded_measurement = 0.569


May I ask what z-score has been recorded for O=C(NCc1ccccc1)c1ccc(Br)cc1[N+](=O)[O-] ?
-0.787

// next record C=CCC(OC(C)=O)[C@@H]1[C@@H](N(Cc2cccc3ccccc23)C(=O)c2ccc(C)cc2)c2cc(OCCCO)ccc2N1C(=O)c1ccc(-c2ccccc2)cc1 (stereo not given in full)
1.1

// next record COC(=O)C1=CC(c2ccc(CO)cc2)=CC(C2CC2)N(Cc2sc3ccccc3c2Cl)C=C1C(=O)OC (stereo not given)
-0.905

// next record O=C1O[C@H](c2ccccc2)[C@H](c2ccccc2)N2[C@H]1[C@@H](C(=O)NC[C@H](O)c1ccccc1)[C@]1(C(=O)Nc3ccc(C#CC4=CCCCC4)cc31)[C@H]2c1ccc(OCCO)cc1
0.0545

// next record COC(=O)C(CC#Cc1ccc2c(c1)[C@]1(C(=O)N2)[C@H](C(=O)N2CCCCCCC2)[C@H]2C(=O)O[C@H](c3ccccc3)[C@H](c3ccccc3)N2[C@@H]1c1ccc(O)cc1)C(=O)OC
0.654

* * *

Assay: E. coli acrAB mutant growth effects, primary screen, E. coli filamentation inducers, strain DRC39, OD650, 48 h (AID 1179);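 further: screen aims at cell division blockers that make cells filament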
Details: E. coli DRC39 delta-acrAB growth, higher = more signal, called active from +8 up or from −8 down
Field: class. Source value: z-score. Ranges: lower range: < -0.2; middle range: ≥ -0.2 and < 0.8; upper range: ≥ 0.8

[[record]]
molecule = "C=CCNC(=O)[C@H]1[C@@H]2C(=O)O[C@@H](c3ccccc3)[C@@H](c3ccccc3)N2[C@@H](c2ccc(O)cc2)[C@]12C(=O)Nc1ccc(C#CCNC(N)=O)cc12"
answer_label = "middle range"

[[record]]
molecule = "COc1ccc([Si](C)(C)[C@@H]2[C@@H](CCO)O[C@]3(C(=O)N(Cc4ccccc4)c4ccccc43)[C@H]2C)cc1"
answer_label = "lower range"

[[record]]
molecule = "CCN1C(C)=C(C(=O)OC)[C@@H](c2ccccc2)N2C(=O)[C@@]3(C(=O)OC)O[C@@]12[C@@H]1C(=O)N(c2ccccc2)C(=O)[C@@H]13"
answer_label = "lower range"

[[record]]
molecule = "CO[C@H]1COC(=O)CC=C[C@H](C)COC(=O)[C@@H](OCc2ccccc2)C=C[C@@H]1C"
answer_label = "middle range"

[[record]]
molecule = "CCOC(=O)C[C@H]1[C@H](OC(=O)Cc2ccc3c(c2)OCO3)[C@@H](NC(=O)CC(C)C)c2cc(OCCCO)ccc2N1C(=O)c1ccccc1"
answer_label = "upper range"


Which bin, given its z-score, does Cc1ccc(S[C@]2(C(=O)NCCCN(C)C)CC(=O)N(C3CCCCC3)[C@@H]2c2ccc(CO)cc2I)cc1 occupy?
lower range

// next record C[C@]1(C(=O)NCCN2CCOCC2)c2ccccc2C(=O)N(Cc2ccccc2)[C@H]1c1ccc(CO)cc1
middle range

// next record CN1C(=O)C2C=CC(C(O)c3ccc(N(C)C)cc3)N(Nc3ccc([N+](=O)[O-])cc3[N+](=O)[O-])C2C1=O (stereo not given)
lower range

// next record C=CC[C@]1(C(N)=O)N=C(c2ccc(OCCCO)cc2)O[C@H]1c1ccccc1CN=[N+]=[N-]
upper range

// next record C=CC[C@]1(C(=O)O)N=C(c2ccc(OCCCO)cc2)O[C@H]1c1ccccc1
upper range

* * *

Assay: binders of probe aHhip on microarray, primary screen, stem cell growth factor project, biochemical, small-molecule microarray, fluorescence 635/667 (AID 1087);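 further: score merges spot fluorescence at 667nm with spot signal to noise ratio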
Conditions: higher = more signal
Entries and their measured composite z-score follow.

The following compounds have reported results that may help.
[[record]]
compound = "Cc1ccc(N2C(=O)c3ccccc3[C@@H](C(=O)NCC(F)(F)F)[C@@H]2c2ccc(CO)cc2)nc1"
quantity_name = "composite z-score"
recorded_measurement = -0.539

[[record]]
compound = "COCCOC(=O)N1C(=O)[C@@]2(c3cc(C#CCCO)ccc31)[C@H](c1ccc(O)cc1)N1[C@H](c3ccccc3)[C@H](c3ccccc3)OC(=O)[C@H]1[C@@H]2C(=O)Nc1nc2ccccc2s1"
quantity_name = "composite z-score"
recorded_measurement = -0.16

[[record]]
compound = "C=CC[C@]1(C(=O)N2CCCCC2)N=C(c2ccc(OCCCO)cc2)O[C@H]1c1ccccc1N=[N+]=[N-]"
quantity_name = "composite z-score"
recorded_measurement = -0.0237

[[record]]
compound = "COc1ccc(C(O)C2C=CC3C(=O)N(C)C(=O)C3N2N2CCCCC2)cc1OCc1ccccc1 (stereo not drawn)"
quantity_name = "composite z-score"
recorded_measurement = 0.232

[[record]]
compound = "C=C(C)[C@@H]1CC=C(C(O)C2C=CC3C(=O)NC(=O)C3N2Nc2ccccn2)CC1 (stereo partly drawn)"
quantity_name = "composite z-score"
recorded_measurement = 0.0524

[[record]]
compound = "C=CCc1cccc([C@H]2N[C@H](C(=O)O)CC[C@@H]2C)c1"
quantity_name = "composite z-score"
recorded_measurement = 0.122

[[record]]
compound = "COC(=O)c1ccc(C#CC(NP(=O)(c2ccccc2)c2ccccc2)c2ccccc2)cc1 (stereo not drawn)"
quantity_name = "composite z-score"
recorded_measurement = 2.35


Now examine the next entry.
May I ask what composite z-score has been recorded for COC(=O)Cn1c(C(=O)N2CCCC2)cc2c1C[C@H]1CN(C(=O)c3ccccc3)[C@@](Cc3ccccc3)(C(=O)OC)[C@@H]21 ?
-0.119
